Data origin, for the record: patent US7083969B2

- experiment.notes: Viability of spleen immune cells cultured in vitro (cytotoxicity)
- Format: cell-based, mice
- applied.conditions: mouse, immune cells separated from the spleen, cultured in vitro; 300 nM; 1st day
outcome.measure: viability at 1 day, 0.3 µM (%)

compound="CCCCCC1=C/C(=C/c2[nH]c(-c3ccc[nH]3)cc2OC)N=C1C [Prodigiosin, prodigiosin]" units_of_measure=% endpoint_result=68

---

- experiment.notes: Viability of spleen immune cells cultured in vitro (cytotoxicity)
- Format: cell-based, mice
- applied.conditions: mouse, immune cells separated from the spleen, cultured in vitro; 10 nM; 1st day
- Procedure: Germ-free test animals, mice BDF1 and B6C3F1, obtained from Genetic Resources Center, Korean Research Institute of Bioscience and Biotechnology in the Korean Institute of Science and Technology, were used for the assay of the immunosuppressive activity of prodigiosin. […] When T lymphocyte activity was measured by use of a graft versus host reaction and a T cell-dependent antibody producing reaction, the prodigiosin suppressed the immune response, but exerted no toxicity on animals. […]
outcome.measure: viability at 1 day, 0.01 µM

molecule_smiles=CCCCCC1=C/C(=C/c2[nH]c(-c3ccc[nH]3)cc2OC)N=C1C outcome_measure="viability at 1 day, 0.01 µM" endpoint_result=89%
